Test system: NCI-H650
Test: relative viability (nuclei count vs DMSO), 5 days (fraction); higher = more cells survive
Conditions: first compound 0.1581 µM
METRIC_NAME: relative viability
Give the figure only, with no unit attached.

In the examples that follow, each entry is paired with its recorded relative viability.
# COMPOUND, relative viability
rows = [
    ("CC1(C)CCC(c2ccc(Cl)cc2)=C(CN2CCN(c3ccc(C(=O)NS(=O)(=O)c4ccc(N[C@H](CCN5CCOCC5)CSc5ccccc5)c(S(=O)(=O)C(F)(F)F)c4)cc3)CC2)C1 [Navitoclax] + COc1cc2c(Oc3ccc(NC(=O)C4(C(=O)Nc5ccc(F)cc5)CC4)cc3F)ccnc2cc1OCCCN1CCOCC1 [Foretinib] (partner 0.25 µM)", 1.04),
    ("CC1(C)CCC(c2ccc(Cl)cc2)=C(CN2CCN(c3ccc(C(=O)NS(=O)(=O)c4ccc(N[C@H](CCN5CCOCC5)CSc5ccccc5)c(S(=O)(=O)C(F)(F)F)c4)cc3)CC2)C1 [Navitoclax] + Nc1nc2[nH]cc(CCc3ccc(C(=O)N[C@@H](CCC(=O)O)C(=O)O)cc3)c2c(=O)[nH]1 [Pemetrexed] (partner 0.2 µM)", 0.95),
]

# evaluate next
q: For the compound CC1(C)CCC(c2ccc(Cl)cc2)=C(CN2CCN(c3ccc(C(=O)NS(=O)(=O)c4ccc(N[C@H](CCN5CCOCC5)CSc5ccccc5)c(S(=O)(=O)C(F)(F)F)c4)cc3)CC2)C1 [Navitoclax] + O=C(CCCCCCC(=O)Nc1ccccc1)NO [Vorinostat] (partner 1 µM) , give its reported relative viability.
a: 0.463

* * *

Each entry below lists one item and its recorded relative viability value.
Test system: HCC-15
Test: relative viability (nuclei count vs DMSO), 5 days (fraction); higher = more cells survive
Conditions: first compound 0.8 µM
Just the number, please.

Illustrative cases are given below, each with its answer.
# COMPOUND, relative viability
rows = [
    ("Oc1nc(-c2ccc(C(F)(F)F)cc2)nc2c1CSCC2 [XAV939] + Cc1nc(NC(=O)N2CCC[C@H]2C(N)=O)sc1-c1ccnc(C(C)(C)C(F)(F)F)c1 [Alpelisib] (partner 2 µM)", 0.925),
    ("Oc1nc(-c2ccc(C(F)(F)F)cc2)nc2c1CSCC2 [XAV939] + Nc1nc2[nH]cc(CCc3ccc(C(=O)N[C@@H](CCC(=O)O)C(=O)O)cc3)c2c(=O)[nH]1 [Pemetrexed] (partner 0.2 µM)", 0.241),
]

We now examine a further compound.
q: State measured relative viability of the compound Oc1nc(-c2ccc(C(F)(F)F)cc2)nc2c1CSCC2 [XAV939] + COc1cc2c(Oc3ccc(NC(=O)C4(C(=O)Nc5ccc(F)cc5)CC4)cc3F)ccnc2cc1OCCCN1CCOCC1 [Foretinib] (partner 0.25 µM) with HCC-15.
a: 1.05

* * *

System: NCI-H1734
Test: relative viability (nuclei count vs DMSO), 5 days (fraction); higher = more cells survive
Conditions: first compound 0.8 µM
This section presents compounds with their documented relative viability values.
Please respond with just the number, no unit label.

# COMPOUND, relative viability
records = [
    ("C=C1C(=O)O[C@@H](CCCCCCCC)[C@@H]1C(=O)O [C-75] + NC(=O)Nc1cc(-c2cccc(F)c2)sc1C(=O)N[C@H]1CCCNC1 [AZD7762] (partner 0.2 µM)", 0.488),
    ("C=C1C(=O)O[C@@H](CCCCCCCC)[C@@H]1C(=O)O [C-75] + CCNC(=O)c1noc(-c2cc(C(C)C)c(O)cc2O)c1-c1ccc(CN2CCOCC2)cc1 [Luminespib] (partner 0.01 µM)", 0.178),
    ("C=C1C(=O)O[C@@H](CCCCCCCC)[C@@H]1C(=O)O [C-75] + COc1cc2c(Oc3ccc(NC(=O)C4(C(=O)Nc5ccc(F)cc5)CC4)cc3F)ccnc2cc1OCCCN1CCOCC1 [Foretinib] (partner 0.25 µM)", 0.78),
    ("Oc1nc(-c2ccc(C(F)(F)F)cc2)nc2c1CSCC2 [XAV939] + C[C@]1(O)C[C@@H](c2nc(-c3ccc4ccc(-c5ccccc5)nc4c3)c3c(N)nccn32)C1 [Linsitinib] (partner 1 µM)", 0.961),
    ("Oc1nc(-c2ccc(C(F)(F)F)cc2)nc2c1CSCC2 [XAV939] + O=C(c1cc(Cc2n[nH]c(=O)c3ccccc23)ccc1F)N1CCN(C(=O)C2CC2)CC1 [Olaparib] (partner 8 µM)", 0.673),
    ("Oc1nc(-c2ccc(C(F)(F)F)cc2)nc2c1CSCC2 [XAV939] + Cc1cc(Nc2cc(N3CCN(C)CC3)nc(Sc3ccc(NC(=O)C4CC4)cc3)n2)n[nH]1 [Tozasertib] (partner 0.1 µM)", 0.261),
    ("Oc1nc(-c2ccc(C(F)(F)F)cc2)nc2c1CSCC2 [XAV939] + Cc1nc(NC(=O)N2CCC[C@H]2C(N)=O)sc1-c1ccnc(C(C)(C)C(F)(F)F)c1 [Alpelisib] (partner 2 µM)", 0.634),
    ("C=C1C(=O)O[C@@H](CCCCCCCC)[C@@H]1C(=O)O [C-75] + C[C@]1(O)C[C@@H](c2nc(-c3ccc4ccc(-c5ccccc5)nc4c3)c3c(N)nccn32)C1 [Linsitinib] (partner 1 µM)", 0.804),
    ("Oc1nc(-c2ccc(C(F)(F)F)cc2)nc2c1CSCC2 [XAV939] + CC(C)C[C@H](NC(=O)[C@H](Cc1ccccc1)NC(=O)c1cnccn1)B(O)O [Bortezomib] (partner 0.002 µM)", 0.709),
]

q: Please report relative viability for the following compound: Oc1nc(-c2ccc(C(F)(F)F)cc2)nc2c1CSCC2 [XAV939] + NC(=O)Nc1cc(-c2cccc(F)c2)sc1C(=O)N[C@H]1CCCNC1 [AZD7762] (partner 0.2 µM)
a: 0.59

* * *

The following compounds are shown together with reported relative viability values.
Tested on: NCI-H2405
Assay: relative viability (nuclei count vs DMSO), 5 days (fraction); higher = more cells survive
Conditions: first compound 0.1 µM
Response field accepts a number only; no unit should be typed.

# COMPOUND, EXPERIMENTAL_TARGET, relative viability
data = [
    ("NC(=O)Nc1cc(-c2cccc(F)c2)sc1C(=O)N[C@H]1CCCNC1 [AZD7762] + N=C(N)NC(=N)NCCc1ccccc1 [Phenformin] (partner 250 µM)", "NCI-H2405", 0.402),
    ("NC(=O)Nc1cc(-c2cccc(F)c2)sc1C(=O)N[C@H]1CCCNC1 [AZD7762] + CCNC(=O)c1noc(-c2cc(C(C)C)c(O)cc2O)c1-c1ccc(CN2CCOCC2)cc1 [Luminespib] (partner 0.01 µM)", "NCI-H2405", 0.784),
    ("NC(=O)Nc1cc(-c2cccc(F)c2)sc1C(=O)N[C@H]1CCCNC1 [AZD7762] + O=C(CCCCCCC(=O)Nc1ccccc1)NO [Vorinostat] (partner 1 µM)", "NCI-H2405", 0.976),
]

q: Indicate the recorded relative viability value for this compound: NC(=O)Nc1cc(-c2cccc(F)c2)sc1C(=O)N[C@H]1CCCNC1 [AZD7762] + Nc1ncn([C@H]2C[C@H](O)[C@@H](CO)O2)c(=O)n1 [Decitabine] (partner 2 µM)
a: 0.808

q: Give the reported relative viability for this compound. NC(=O)Nc1cc(-c2cccc(F)c2)sc1C(=O)N[C@H]1CCCNC1 [AZD7762] + Cc1nc(Nc2ncc(C(=O)Nc3c(C)cccc3Cl)s2)cc(N2CCN(CCO)CC2)n1 [Dasatinib] (partner 0.075 µM)
a: 0.228

q: Read the entry NC(=O)Nc1cc(-c2cccc(F)c2)sc1C(=O)N[C@H]1CCCNC1 [AZD7762] + O=C(c1cc(Cc2n[nH]c(=O)c3ccccc23)ccc1F)N1CCN(C(=O)C2CC2)CC1 [Olaparib] (partner 8 µM) and write its reported relative viability.
a: 0.837

q: Provide measured relative viability value, entry: NC(=O)Nc1cc(-c2cccc(F)c2)sc1C(=O)N[C@H]1CCCNC1 [AZD7762] + C[C@@H](Oc1cc(-c2cnn(C3CCNCC3)c2)cnc1N)c1c(Cl)ccc(F)c1Cl [Crizotinib] (partner 1 µM)
a: 0.841

* * *

System: NCI-H1703
Assay: relative viability (nuclei count vs DMSO), 5 days (fraction); higher = more cells survive
Conditions: first compound 0.03162 µM
The threshold is 0.3. Values of relative viability beneath it are tagged true (1); values meeting or exceeding it are tagged false (0).

Sample answers from the record:
# MOLECULE, EXPERIMENTAL_TARGET, CATEGORY
measured = [
    ("NC(=O)Nc1cc(-c2cccc(F)c2)sc1C(=O)N[C@H]1CCCNC1 [AZD7762] + CC1(C)CCC(c2ccc(Cl)cc2)=C(CN2CCN(c3ccc(C(=O)NS(=O)(=O)c4ccc(N[C@H](CCN5CCOCC5)CSc5ccccc5)c(S(=O)(=O)C(F)(F)F)c4)cc3)CC2)C1 [Navitoclax] (partner 0.5 µM)", "NCI-H1703", "true (1)"),
    ("NC(=O)Nc1cc(-c2cccc(F)c2)sc1C(=O)N[C@H]1CCCNC1 [AZD7762] + O=C(c1cc(Cc2n[nH]c(=O)c3ccccc23)ccc1F)N1CCN(C(=O)C2CC2)CC1 [Olaparib] (partner 8 µM)", "NCI-H1703", "true (1)"),
    ("NC(=O)Nc1cc(-c2cccc(F)c2)sc1C(=O)N[C@H]1CCCNC1 [AZD7762] + Cc1nc(NC(=O)N2CCC[C@H]2C(N)=O)sc1-c1ccnc(C(C)(C)C(F)(F)F)c1 [Alpelisib] (partner 2 µM)", "NCI-H1703", "true (1)"),
]

q: Is the reported relative viability for NC(=O)Nc1cc(-c2cccc(F)c2)sc1C(=O)N[C@H]1CCCNC1 [AZD7762] + C[C@]1(O)C[C@@H](c2nc(-c3ccc4ccc(-c5ccccc5)nc4c3)c3c(N)nccn32)C1 [Linsitinib] (partner 1 µM) strictly below 0.3?
a: true (1)

q: Find out if reported relative viability for NC(=O)Nc1cc(-c2cccc(F)c2)sc1C(=O)N[C@H]1CCCNC1 [AZD7762] + CS(=O)(=O)CCNCc1ccc(-c2ccc3ncnc(Nc4ccc(OCc5cccc(F)c5)c(Cl)c4)c3c2)o1 [Lapatinib] (partner 2 µM) is less than 0.3
a: false (0)

The values you see were collected from the supplement of paper PMC10307832.
